Just for reference, paper PMC5376947 is where these values come from.

Parameter pIC50: see the listing below.
- Test system: CS242 fibroblast
- experimental protocol: CS242 fibroblast cell viability assay, CellTiter-Glo, 72 h
- Type: cell-based, human
- study conditions: Homo sapiens, Fibroblast, Table 2 hit confirmation, top 7.5 μM, mean ± SD (n = 3)
Counter-ions that a name gives are not always drawn.
// field semantics: pIC50 = negative decimal log of concentration (mol/L)

- compound: "CC[C@@]1(O)C(=O)OCc2c1cc1n(c2=O)Cc2cc3c(CN(C)C)c(O)ccc3nc2-1 [Topotecan hydrochloride]"
  outcome measure: "pIC50"
  result: 7.29
- compound: "C[C@]12CC[C@H](O)C[C@H]1CC[C@@H]1[C@@H]2C[C@@H](O)[C@]2(C)[C@@H](C3=CC(=O)OC3)CC[C@]12O [Digoxigenin]"
  outcome measure: "pIC50"
  result: 6.04
- compound: "CC[C@@]1(O)C(=O)OCc2c1cc1n(c2=O)Cc2cc3cc(O)ccc3nc2-1 [10-Hydroxy-camptothecin]"
  outcome measure: "pIC50"
  result: 6.95

Please examine the following record next.
(Q) // returns reported pIC50 for input C[C@H]1O[C@@H](O[C@H]2[C@@H](O)C[C@H](O[C@H]3[C@@H](O)C[C@H](O[C@H]4CC[C@@]5(C)[C@H](CC[C@@H]6[C@@H]5CC[C@]5(C)[C@@H](C7=CC(=O)OC7)[C@@H](O)C[C@]65O)C4)O[C@@H]3C)O[C@@H]2C)C[C@H](O)[C@@H]1O [Gitoxin]
(A) 6.55
